# Tested on: 628569-122-R-J1-PDC complex spheroid viability
# testProtocol: Anticancer human tumor 628569-122-R-J1-PDC patient-derived head and neck squamous carcinoma cell line growth inhibition [CLK]
# conditionSummary: second compound 3.16 µM; first compound 0.0316 µM; stronger effect = lower value
# Description: A high-throughput screen of multi-cell type tumor spheroids was designed to identify active combinations of […] and targeted small molecules. Complex spheroids include a stromal component modeled by human endothelial cells (HUVEC) and fibroblasts modeled by human mesenchymal stem cells (MSCs). […] Compounds. […] If the clinical Cmax for an agent had not been determined, the highest concentration tested was 10 microM. […]
# strict inequality: viability, T/C < 9% yields label 1, everything else yields label 0

Given the entry COc1ccc([C@@H](O)c2cc(-c3ncnc4cc(N5CCOCC5)ccc34)c(F)cc2Cl)nn1 + CN1CCN(c2cc(C(=O)Nc3cc4cc(-c5cnn(C)c5)ccc4cn3)ccn2)CC1 , would its reported viability, T/C be below 9%?
label 1

Answer whether the molecule Nc1ccn(C2OC(CO)C(O)C2(F)F)c(=O)n1 (stereo not given) + CN1CCN(c2cc(C(=O)Nc3cc4cc(-c5cnn(C)c5)ccc4cn3)ccn2)CC1 has viability, T/C strictly less than 9%
label 1

Decide: viability, T/C of O=C(c1cc(Cc2n[nH]c(=O)c3ccccc23)ccc1F)N1CCN(C(=O)C2CC2)CC1 + CNC(=O)c1ccc(Nc2nc(OC3CCCC3)c3c(-c4ccc5nc(C)oc5c4)c[nH]c3n2)c(OC)c1 strictly below 9%?
label 0

Input COc1ccc([C@@H](O)c2cc(-c3ncnc4cc(N5CCOCC5)ccc34)c(F)cc2Cl)nn1 + CNC(=O)c1ccc(Nc2nc(OC3CCCC3)c3c(-c4ccc5nc(C)oc5c4)c[nH]c3n2)c(OC)c1 ; condition: viability, T/C strictly below 9%. Does it hold?
label 0

Please indicate whether the reported viability, T/C of CCN1CCN(Cc2ccc(Nc3ncc(F)c(-c4cc(F)c5nc(C)n(C(C)C)c5c4)n3)nc2)CC1 + CNC(=O)c1ccc(Nc2nc(OC3CCCC3)c3c(-c4ccc5nc(C)oc5c4)c[nH]c3n2)c(OC)c1 is strictly below 9%.
label 0

Given the entry CCc1c2c(nc3ccc(O)cc13)-c1cc3c(c(=O)n1C2)COC(=O)[C@]3(O)CC + CN1CCN(c2cc(C(=O)Nc3cc4cc(-c5cnn(C)c5)ccc4cn3)ccn2)CC1 , would its reported viability, T/C be below 9%?
label 1

In plain terms, does Nc1ccn(C2OC(CO)C(O)C2(F)F)c(=O)n1 (stereo not given) + CNC(=O)c1ccc(Nc2nc(OC3CCCC3)c3c(-c4ccc5nc(C)oc5c4)c[nH]c3n2)c(OC)c1 come in under 9% for viability, T/C?
label 0

---

# System: 628569-122-R-J1-PDC complex spheroid viability
# testProtocol: Anticancer human tumor 628569-122-R-J1-PDC cell line growth inhibition [CLK];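 further: spheroids exposed to agents for seven days before readout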
# conditionSummary: curve of first compound; second compound 0.0316 µM
readoutKind: pIC50
pIC50 field: float, defined as -log10 of concentration (mol/L).

compound | pIC50
O=C(c1cc(Cc2n[nH]c(=O)c3ccccc23)ccc1F)N1CCN(C(=O)C2CC2)CC1 + CN1CCN(c2cc(C(=O)Nc3cc4cc(-c5cnn(C)c5)ccc4cn3)ccn2)CC1 | 5.17
CCc1c2c(nc3ccc(O)cc13)-c1cc3c(c(=O)n1C2)COC(=O)[C@]3(O)CC + CNC(=O)c1ccc(Nc2nc(OC3CCCC3)c3c(-c4ccc5nc(C)oc5c4)c[nH]c3n2)c(OC)c1 | 6.49
Nc1ccccc1NC(=O)c1ccc(CNC(=O)OCc2cccnc2)cc1 + CN1CCN(c2cc(C(=O)Nc3cc4cc(-c5cnn(C)c5)ccc4cn3)ccn2)CC1 | 5.12

Per the records, this compound ( NC(=O)C(=Cn1cnc(-c2cc(C(F)(F)F)cc(C(F)(F)F)c2)n1)c1cncnc1 + CN1CCN(c2cc(C(=O)Nc3cc4cc(-c5cnn(C)c5)ccc4cn3)ccn2)CC1 ) has pIC50 equal to 6.17
